Provide the reported logP of each item.
- run parameters: octanol/water
Numbers only.

compound	assay metric	data value
O=[N+]([O-])c1ccc2c3c(cccc13)CC2	logP	3.85
Nc1ccccc1-c1ccc([N+](=O)[O-])cc1	logP	2.68
O=[N+]([O-])c1ccc(-c2ccccc2)cc1	logP	3.77

Hey, can you go through the list below and give me logP for every item?
1. O=[N+]([O-])c1cccc(Cl)c1Cl
2. O=[N+]([O-])C1=Cc2cc3cc4ccccc4cc3c3cccc1c23
3. Nc1cccc(-c2cccc([N+](=O)[O-])c2)c1
4. O=[N+]([O-])c1c(Cl)cc2c(c1Cl)Oc1cc(Cl)c(Cl)cc1O2

Data returned:
1. 3.05
2. 5.07
3. 2.68
4. 7.13

Hey, can you go through the list below and give me logP for every item?
1. Cc1ccccc1-c1ccc([N+](=O)[O-])cc1
2. O=[N+]([O-])c1ccc2cccc3c2c1-c1ccccc1-3
3. O=[N+]([O-])c1ccc2c(c1)Cc1cc(I)ccc1-2
4. O=[N+]([O-])c1ccc2c(c1)CCN2

Data returned:
[4.27, 4.69, 5.09, 2.07]

Hey, can you go through the list below and give me logP for every item?
1. O=[N+]([O-])c1ccc(/C=C/c2ccccc2)cc1
2. O=[N+]([O-])c1ccc(F)cc1
3. O=C(/C=C/c1ccccc1)c1ccc([N+](=O)[O-])cc1
4. O=[N+]([O-])c1ccc2ccc3cc4ccccc4c4ccc1c2c34
5. O=Cc1ccc([N+](=O)[O-])cc1

Data returned:
1: 4.18; 2: 1.8; 3: 2.83; 4: 5.87; 5: 1.56

Hey, can you go through the list below and give me logP for every item?
1. O=[N+]([O-])c1c2c(cc3ccccc13)C(O)C(O)C=C2 (stereo not given)
2. O=[N+]([O-])c1cccc2[nH]ccc12
3. O=[N+]([O-])c1ccc2cccc3c2c1CC3
4. COc1ccccc1[N+](=O)[O-] [2-NITROANISOLE]
5. CN1Cc2ccc([N+](=O)[O-])cc2N1
6. O=[N+]([O-])c1c2c(cc3c1ccc1ccccc13)C=CC(O)C2O (stereo not given)
7. O=[N+]([O-])c1cc2c3c(c([N+](=O)[O-])c([N+](=O)[O-])cc3c1)-c1ccccc1-2

Data returned:
1. 3.4
2. 2.13
3. 3.81
4. 1.73
5. 1.77
6. 2.55
7. 4.18

Hey, can you go through the list below and give me logP for every item?
1. O=[N+]([O-])c1c2c(c3ccc4cccc5ccc1c3c45)CCCC2
2. Cn1ccc2cccc([N+](=O)[O-])c21

Data returned:
6.57
2.5
